# TARGET UNDER TEST: HDAC5 (Homo sapiens, UniProt Q9UQL6)
# Sequence (Q9UQL6 whole entry): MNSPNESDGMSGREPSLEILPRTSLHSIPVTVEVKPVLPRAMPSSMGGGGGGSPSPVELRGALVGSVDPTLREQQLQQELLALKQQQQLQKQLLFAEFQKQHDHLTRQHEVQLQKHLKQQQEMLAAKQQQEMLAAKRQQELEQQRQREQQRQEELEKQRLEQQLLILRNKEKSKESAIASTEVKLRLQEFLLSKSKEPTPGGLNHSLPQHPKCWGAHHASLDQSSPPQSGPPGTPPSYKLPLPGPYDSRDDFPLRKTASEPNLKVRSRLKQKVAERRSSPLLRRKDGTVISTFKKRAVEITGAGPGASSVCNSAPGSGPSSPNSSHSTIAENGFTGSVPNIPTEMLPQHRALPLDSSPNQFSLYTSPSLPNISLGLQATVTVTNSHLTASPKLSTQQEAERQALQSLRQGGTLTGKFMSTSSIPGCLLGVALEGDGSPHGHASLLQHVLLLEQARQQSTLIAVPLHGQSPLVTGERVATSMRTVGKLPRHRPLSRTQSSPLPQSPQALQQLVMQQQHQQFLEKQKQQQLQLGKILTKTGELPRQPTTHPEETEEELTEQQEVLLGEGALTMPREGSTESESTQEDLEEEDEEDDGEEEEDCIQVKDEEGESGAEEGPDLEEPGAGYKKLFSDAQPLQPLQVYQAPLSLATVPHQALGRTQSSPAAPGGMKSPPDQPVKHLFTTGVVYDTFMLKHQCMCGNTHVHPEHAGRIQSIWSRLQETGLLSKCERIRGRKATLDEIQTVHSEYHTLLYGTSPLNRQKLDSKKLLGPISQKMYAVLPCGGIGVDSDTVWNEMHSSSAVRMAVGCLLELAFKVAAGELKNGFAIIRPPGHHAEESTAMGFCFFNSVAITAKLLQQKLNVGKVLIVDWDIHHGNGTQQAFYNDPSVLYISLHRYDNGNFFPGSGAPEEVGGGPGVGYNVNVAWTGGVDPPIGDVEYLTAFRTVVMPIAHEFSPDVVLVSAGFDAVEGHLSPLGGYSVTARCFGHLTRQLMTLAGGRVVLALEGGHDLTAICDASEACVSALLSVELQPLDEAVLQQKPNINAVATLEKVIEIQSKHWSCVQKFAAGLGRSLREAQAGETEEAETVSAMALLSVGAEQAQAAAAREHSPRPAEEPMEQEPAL
# EXPERIMENT SUMMARY: Fluorimetric deacetylase assay, HDAC5
# TEST SETTINGS: Class IIa
ASSAY READOUT: IC50

Query string: Return value of IC50 for input CCCC(CCC)C(=O)O [valproate] , no commentary.
Result string: > 10 mM

Values were extracted from patent US20130039998A1.
